Target: T1, mouse GPC3-SK-HEP1 (mouse, UniProt Q8CFZ4)
T1 construct: cell-surface protein on transfected cells; also called mouse GPC3 transfected SK-Hep1 cells
T1 sequence (Q8CFZ4 25-553 limits assumed): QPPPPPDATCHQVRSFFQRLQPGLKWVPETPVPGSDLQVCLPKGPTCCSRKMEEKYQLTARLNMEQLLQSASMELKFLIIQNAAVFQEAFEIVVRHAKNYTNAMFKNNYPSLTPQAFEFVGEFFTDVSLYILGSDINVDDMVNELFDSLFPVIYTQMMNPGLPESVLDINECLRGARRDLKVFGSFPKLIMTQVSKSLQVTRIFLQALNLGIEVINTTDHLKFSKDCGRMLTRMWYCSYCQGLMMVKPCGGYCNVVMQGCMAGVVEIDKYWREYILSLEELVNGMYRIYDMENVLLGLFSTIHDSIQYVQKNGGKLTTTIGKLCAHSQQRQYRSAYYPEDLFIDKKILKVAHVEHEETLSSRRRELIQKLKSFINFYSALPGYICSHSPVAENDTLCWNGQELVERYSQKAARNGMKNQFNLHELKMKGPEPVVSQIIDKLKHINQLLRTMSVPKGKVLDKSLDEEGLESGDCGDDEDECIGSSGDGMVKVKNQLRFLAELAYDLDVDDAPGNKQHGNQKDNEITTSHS
Experiment: flow cytometry on SK-HEP1 cells stably transfected with mouse GPC3, detection via rabbit anti-hNGAL antiserum and anti-rabbit IgG-PE
result.type: EC50 (nM)

[[record]]
binder = "PIE-G3G (designed binder, C-terminal Strep-tag II; also called Lcn2 mutein; not shown: C-terminal Strep-tag II) QDSTSDLIPAPPLSKVPLQQNFQDNQFHGKWYVVGMAGNASLREDKDPRKMNATIYELKEDKSYNVTKVRFWHKKCYYSITTFVPGSQPGEFTLGDIKSYPGWTSYLVRVVSTNYNQHAMVFFKGVRQNREWFSITLYGRTKELTSELKENFIRFSKSLGLPENHIVFPVPIDQCIDGSAWSHPQFEK"
result_type = "EC50"
readout_value = 4.3

[[record]]
binder = "PIE-G3H (designed binder, C-terminal Strep-tag II; also called Lcn2 mutein; not shown: C-terminal Strep-tag II) QDSTSDLIPAPPLSKVPLQQNFQDNQFHGKWYVVGIAGNYILREDKDPPKMRATIYELKEDKSYNVTRVFFSRKKCDYIIWTFVPGSQPGEFTLGFIKSNPGLTSLLVRVVSTNYNQHAMVFFKWVDQNREVFGITLYGRTKELTSELKENFIRFSKSLGLPENHIVFPVPIDQCIDGSAWSHPQFEK"
result_type = "EC50"
readout_value = 580

[[record]]
binder = "PIE-G3F (designed binder, C-terminal Strep-tag II; also called Lcn2 mutein; not shown: C-terminal Strep-tag II) QDSTSDLIPAPPLSKVPLQQNFQDNQFHGKWYVVGIAGNGQLREDKDPWKMSATIYELKEDKSYNVTSVRFRLKKCSYWIYTFVPGSQPGEFTLGGIKSNPGDTSNLVRVVSTNYNQHAMVFFKYVIQNREWFIITLYGRTKELTSELKENFIRFSKSLGLPENHIVFPVPIDQCIDGSAWSHPQFEK"
result_type = "EC50"
readout_value = 18.7

